test system: Candida albicans; assay: In vitro antimicrobial activity, minimal inhibitory concentration (agar dilution), Candida albicans; type: cell-based, Candida albicans ATC 10231; details: Mueller Hinton agar, 32° C., 48 hours, complete inhibition of growth, read-out: Minimal inhibitory concentration, Candida albicans
Structures can show the parent of a compound that is named as a salt.
QUANTITY: MIC (µg/mL)
Give a bare numeral; the unit µg/mL is implied.

**Q:** Report measured MIC on Candida albicans; entry: Cl.c1ccc(-c2ccc(OCCCCn3ccnc3)cc2)cc1
**A:** 1

**Q:** Report measured MIC on Candida albicans; entry: Cl.c1ccc(-c2ccc(OCCCCCn3ccnc3)cc2)cc1
**A:** 50

**Q:** Report measured MIC on Candida albicans; entry: CCCN(CCC)CCCOc1ccc(/C=C/c2cccc(OC)c2)cc1 [Example 3, hydrochloride]
**A:** 50

**Q:** Report measured MIC on Candida albicans; entry: CC(C)N1CCN(c2ccc(OCC3COC(Cn4cncn4)(c4ccc(Cl)cc4Cl)O3)cc2)CC1 (stereo not drawn) [Terconazole, terconazole, reference compound]
**A:** 0.1

**Q:** Report measured MIC on Candida albicans; entry: Cl.c1ccc(-c2ccc(OCCCn3ccnc3)cc2)cc1
**A:** 1

**Q:** Report measured MIC on Candida albicans; entry: c1ccc(Cc2ccc(OCCCn3ccnc3)cc2)cc1 [Example 12, hydrochloride]
**A:** 50

**Q:** Report measured MIC on Candida albicans; entry: CCCN(CCC)CCCCOc1ccc(-c2ccccc2)cc1.Cl
**A:** 50

* * *

Exercise: for every item that follows, state its recorded MIC.
Structures can show the parent of a compound that is named as a salt.
Give a bare numeral; the unit µg/mL is implied.

**Q:** Report measured MIC on Trichophyton mentagrophytes; entry: C(=C\c1ccc(OCCCCn2ccnc2)cc1)/c1ccccc1 [Example 1, hydrochloride]
**A:** 50

**Q:** Report measured MIC on Trichophyton mentagrophytes; entry: c1ccc(Cc2ccc(OCCCn3ccnc3)cc2)cc1 [Example 12, hydrochloride]
**A:** 10

**Q:** Report measured MIC on Trichophyton mentagrophytes; entry: Cl.c1ccc(-c2ccc(OCCCCn3ccnc3)cc2)cc1 [Example 6]
**A:** 1

**Q:** Report measured MIC on Trichophyton mentagrophytes; entry: c1ccc(-c2ccc(OCCCCCn3cncn3)cc2)cc1 [Example 10, hydrochloride]
**A:** 10

**Q:** Report measured MIC on Trichophyton mentagrophytes; entry: Cl.c1ccc(-c2ccc(OCCCCCn3ccnc3)cc2)cc1 [Example 9]
**A:** 10

**Q:** Report measured MIC on Trichophyton mentagrophytes; entry: Clc1ccc(COC(Cn2ccnc2)c2ccc(Cl)cc2Cl)c(Cl)c1 (stereo not shown) [Miconazole Nitrate, miconazole nitrate, reference compound]
**A:** 5

**Q:** Report measured MIC on Trichophyton mentagrophytes; entry: C(=C\c1ccc(OCCCn2ccnc2)cc1)/c1ccccc1.Cl [Example 2]
**A:** 10

**Q:** Report measured MIC on Trichophyton mentagrophytes; entry: Cl.c1ccc(-c2ccc(OCCCn3ccnc3)cc2)cc1 [Example 8]
**A:** 1

**Q:** Report measured MIC on Trichophyton mentagrophytes; entry: CCCN(CCC)CCCCOc1ccc(-c2ccccc2)cc1.Cl [Example 7]
**A:** 1

**Q:** Report measured MIC on Trichophyton mentagrophytes; entry: CCCN(CCC)CCCOc1ccc(/C=C/c2cccc(OC)c2)cc1 [Example 3, hydrochloride]
**A:** 50

**Q:** Report measured MIC on Trichophyton mentagrophytes; entry: Cl.O=C(c1ccc(Cl)cc1)c1ccc(OCCCn2ccnc2)cc1 [Example 11]
**A:** 1

**Q:** Report measured MIC on Trichophyton mentagrophytes; entry: CC(C)N1CCN(c2ccc(OCC3COC(Cn4cncn4)(c4ccc(Cl)cc4Cl)O3)cc2)CC1 (stereo not shown) [Terconazole, terconazole, reference compound]
**A:** 50
